type: in vivo, human; conditions: female, human, plasma, po, 400 mg
PROPERTY: half-life (h)
Please state the figure in h; there is no need to write the unit.

Tell me the measured half-life of Oc1ccc2c3c(cnc2c1)-c1ccc(C(F)(F)F)cc1O[C@@H]3c1ccc(OCCN2CC(CF)C2)cc1 [Imlunestrant] , please.
32.1

----------
assay type: in vivo, human; details: female, human, plasma, po, 400 mg
PROPERTY: Cmax (ng/mL)
Please state the figure in ng/mL; there is no need to write the unit.

Tell me the measured Cmax of `Oc1ccc2c3c(cnc2c1)-c1ccc(C(F)(F)F)cc1O[C@@H]3c1ccc(OCCN2CC(CF)C2)cc1` , please.
38.7

----------
assay type: in vivo; details: female, human, plasma, po, 400 mg
PROPERTY: Cmax (ng/mL)
Please state the figure in ng/mL; there is no need to write the unit.

Tell me the measured Cmax of `Oc1ccc2c3c(cnc2c1)-c1ccc(C(F)(F)F)cc1O[C@@H]3c1ccc(OCCN2CC(CF)C2)cc1` , please.
117

----------
format: in vivo, human; details: female, human, plasma, iv, 45 µg
PROPERTY: Vd (L)
Please state the figure in L; there is no need to write the unit.

Tell me the measured Vd of Oc1ccc2c3c(cnc2c1)-c1ccc(C(F)(F)F)cc1O[C@@H]3c1ccc(OCCN2CC(CF)C2)cc1 [Imlunestrant] , please.
1020

----------
assay type: in vivo, human; settings: female, human, plasma, po, 400 mg
PROPERTY: Tmax (h)
Please state the figure in h; there is no need to write the unit.

Tell me the measured Tmax of `Oc1ccc2c3c(cnc2c1)-c1ccc(C(F)(F)F)cc1O[C@@H]3c1ccc(OCCN2CC(CF)C2)cc1` , please.
4.37

----------
assay type: in vivo; conditions: female, human, plasma, po, 400 mg
PROPERTY: half-life (min)
Please state the figure in min; there is no need to write the unit.

Tell me the measured half-life of Oc1ccc2c3c(cnc2c1)-c1ccc(C(F)(F)F)cc1O[C@@H]3c1ccc(OCCN2CC(CF)C2)cc1 [Imlunestrant] , please.
2020

----------
assay type: in vivo, human; details: female, human, plasma, intravenous, 45 µg
PROPERTY: half-life (h)
Please state the figure in h; there is no need to write the unit.

Tell me the measured half-life of `Oc1ccc2c3c(cnc2c1)-c1ccc(C(F)(F)F)cc1O[C@@H]3c1ccc(OCCN2CC(CF)C2)cc1` , please.
32.5

----------
format: in vivo, human; settings: female, human, plasma, intravenous, 45 µg
PROPERTY: AUC (ng·h/mL)
Please state the figure in ng·h/mL; there is no need to write the unit.

Tell me the measured AUC of `Oc1ccc2c3c(cnc2c1)-c1ccc(C(F)(F)F)cc1O[C@@H]3c1ccc(OCCN2CC(CF)C2)cc1` , please.
1.92

----------
format: in vivo, human; details: female, human, plasma, intravenous, 45 µg
PROPERTY: Cmax (ng/mL)
Please state the figure in ng/mL; there is no need to write the unit.

Tell me the measured Cmax of Oc1ccc2c3c(cnc2c1)-c1ccc(C(F)(F)F)cc1O[C@@H]3c1ccc(OCCN2CC(CF)C2)cc1 [Imlunestrant] , please.
0.585
